Molecular target: T1, human CRH receptor type 2 (human, UniProt Q13324 1-411)
T1 sequence (looked up): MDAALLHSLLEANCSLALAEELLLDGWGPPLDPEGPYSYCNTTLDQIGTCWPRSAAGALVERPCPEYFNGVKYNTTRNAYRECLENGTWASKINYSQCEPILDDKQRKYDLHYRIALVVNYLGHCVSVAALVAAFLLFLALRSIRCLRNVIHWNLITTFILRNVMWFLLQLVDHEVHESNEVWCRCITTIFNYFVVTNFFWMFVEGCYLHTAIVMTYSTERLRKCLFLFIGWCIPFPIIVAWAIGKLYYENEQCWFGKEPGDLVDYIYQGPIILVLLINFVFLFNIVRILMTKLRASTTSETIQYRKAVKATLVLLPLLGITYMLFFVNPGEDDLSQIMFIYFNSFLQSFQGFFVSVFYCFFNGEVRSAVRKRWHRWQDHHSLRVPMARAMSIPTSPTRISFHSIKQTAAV
Experiment: cell-based or functional assay
No end group written: not given here.
MEASURE NAME: Log DR against h-SCP, cAMP

INSERT INTO results (binder, measure_name, measured_value) VALUES
  ('TKFTLSLDVPTNIMNLCFNIAKAKNLRAQAAANAHLMAQI (NES-PEG (about 20 kDa) on Cys 17; C-terminal amide) [Pegylated Cys-variant CRHR2 peptide agonist (NES linker, PEG about 20 kDa), SEQ ID NO: 71]', 'Log DR against h-SCP, cAMP', '~2.26 log10 ratio'),
  ('TCFTLSLDVPTNIMNLLFNIAKAKNLRAQAAANAHLMAQI (NES-PEG (about 20 kDa) on Cys 2; C-terminal amide) [Pegylated Cys-variant CRHR2 peptide agonist (NES linker, PEG about 20 kDa), SEQ ID NO: 56]', 'Log DR against h-SCP, cAMP', '~2.34 log10 ratio'),
  ('TKFTLSLDVPTNIMNLLFNIAKACNLRAQAAANAHLMAQI-NH2 [Cys-variant CRHR2 peptide agonist, SEQ ID NO: 25]', 'Log DR against h-SCP, cAMP', '0.35 log10 ratio');

The reported measurements were obtained from patent US20100130424A1.
